Would you kindly list IC50 for each of these compounds?
# tested_system: PAF receptor (Oryctolagus cuniculus, UniProt G1TEI7)
# Construct: centrifuged at 800 rpm for 10-15 minutes at room temperature to recover the platelet rich plasma (PRP); endogenous in cells; host or cells: rabbit platelets (platelet rich plasma from citrated blood of male New Zealand White rabbits)
# Sequence (G1TEI7 1-342): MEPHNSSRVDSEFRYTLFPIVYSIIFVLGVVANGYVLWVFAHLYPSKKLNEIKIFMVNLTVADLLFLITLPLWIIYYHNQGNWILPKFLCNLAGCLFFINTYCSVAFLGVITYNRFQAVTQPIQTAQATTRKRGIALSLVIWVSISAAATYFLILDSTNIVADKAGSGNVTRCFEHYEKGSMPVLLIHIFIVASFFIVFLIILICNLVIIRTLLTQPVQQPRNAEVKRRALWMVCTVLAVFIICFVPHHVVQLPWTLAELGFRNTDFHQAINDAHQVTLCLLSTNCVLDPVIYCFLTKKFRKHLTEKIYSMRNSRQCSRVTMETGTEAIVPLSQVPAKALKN
# assay_comment: In vitro PAF antagonism: inhibition of PAF induced platelet aggregation in rabbit platelet rich plasma
# Type: cell-based, rabbit (male New Zealand White)
# experimental_setup: PAF challenge 1.00E-07 M; rabbit PRP
Lab book: enter the figure in µM, no units written.

Problem: Please give the documented IC50 of `CCCCCCCCCCCCCCCCOc1ccc(OCC(=O)NCCc2cccc[n+]2CC)cc1`
Solution: 4.64

Problem: Output measured IC50 for this item: `CCCCCCCCCCCCCCOc1ccc(CN(Cc2cccc[n+]2CC)C(C)=O)cc1`
Solution: 13
